# testedSystem: T1, SARS-CoV-2 NTD (Table A) (SARS-CoV-2, UniProt P0DTC2 14-305)
# T1 construct: domain: NTD
# protocolDetails: ELISA, purified IgG
ELISA OD 450 nm values, listed per item
Provide only the numeric value, understood in OD 450 nm.

Exercise: Which ELISA OD 450 nm value is on record for COV2-2952 (antibody, V domains shown) VH: EVQLVESGGGLVQPGGSLRLSCAASGLTVRSNYMTWVRQTPGKGLEWVSVIYSGGSTFYADSVKGRFTISRDNSKNTVYLQMNSLRAEDTAVYYCARDLVTYGLDVWGQGTTVTVSS VL: DIQLTQSPSFLSASVGDRVTITCRASQGISNYLAWYQQKPGTAPNLLIYAASTLQSGVPSRFSGSGSGTEFTLTISSLQPEDFATYYCQLLNSHPLTFGQGTRLEIK ?
Key: 0.1

Exercise: Which ELISA OD 450 nm value is on record for COV2-2165 (antibody, V domains shown) VH: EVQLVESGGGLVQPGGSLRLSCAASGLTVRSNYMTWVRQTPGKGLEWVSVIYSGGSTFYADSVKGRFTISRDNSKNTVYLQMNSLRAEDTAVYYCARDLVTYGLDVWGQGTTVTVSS VL: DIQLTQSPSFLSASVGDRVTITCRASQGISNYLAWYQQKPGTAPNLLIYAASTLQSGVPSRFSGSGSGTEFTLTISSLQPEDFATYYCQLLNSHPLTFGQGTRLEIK ?
Key: 0.05

Exercise: Which ELISA OD 450 nm value is on record for COV2-2094 (antibody, V domains shown) VH: EVQLVESGGGVVRPGGSLRLSCAASGFIFDDYDMTWVRQAPGKGLEWVSGINWNGGSTGYADSVKGRFTISRDNAKNSLYLQMNSLRAEDTALYHCAVIMSPIPRYSGYDWAGDAFDIWGQGTMVTVSS VL: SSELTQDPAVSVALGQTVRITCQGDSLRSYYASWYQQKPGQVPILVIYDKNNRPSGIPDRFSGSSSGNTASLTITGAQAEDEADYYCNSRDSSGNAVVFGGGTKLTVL ?
Key: 0.1
